Entry source: ChEMBL document CHEMBL1149055

# test-system: Substance-P receptor (Homo sapiens)
# Sequence (P25103 whole entry): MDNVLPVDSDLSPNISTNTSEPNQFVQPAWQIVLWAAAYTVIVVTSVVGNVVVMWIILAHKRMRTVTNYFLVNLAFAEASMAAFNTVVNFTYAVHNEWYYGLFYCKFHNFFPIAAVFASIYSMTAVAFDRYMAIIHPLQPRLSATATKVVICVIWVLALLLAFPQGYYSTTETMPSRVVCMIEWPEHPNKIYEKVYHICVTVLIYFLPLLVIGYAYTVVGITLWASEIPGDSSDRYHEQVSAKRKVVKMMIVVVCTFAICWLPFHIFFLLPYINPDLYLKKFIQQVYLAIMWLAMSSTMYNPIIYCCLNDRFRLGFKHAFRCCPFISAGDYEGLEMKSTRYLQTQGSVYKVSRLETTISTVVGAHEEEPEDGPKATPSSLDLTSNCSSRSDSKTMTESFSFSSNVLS
# method-summary: Displacement of [3H]substance P from NK1 receptor in human astrocytoma cells at 200 uM
# Type: cell-based
Active and inactive are the calls of the source. No cut-off for these calls is given here.
value-type: Activity

Recorded Activity, per entry:
>>> observed_measurement("O=C1N[C@@H](Cc2ccccc2)C(=O)N2CCC[C@@H]12")
"inactive"
>>> observed_measurement("C[C@H]1N[C@H]2N(C1=O)c1ccccc1[C@@]21C[C@@H]2C(=O)N[C@](C)(O1)c1nc3ccccc3c(=O)n12")
"inactive"
>>> observed_measurement("O=C1N[C@@H](Cc2c[nH]c3ccccc23)C(=O)Nc2ccccc21")
"inactive"
>>> observed_measurement("O=C1N[C@@H](Cc2ccc(O)cc2)C(=O)N2CCC[C@H]12")
"inactive"
>>> observed_measurement("O=C1N[C@@H](Cc2ccc(O)cc2)C(=O)N2CCC[C@@H]12")
"inactive"

Request the reported Activity associated with CC(C)C[C@@H]1NC(=O)[C@@H]2CCCN2C1=O
inactive

// next record O=C(N[C@H](CO)Cc1ccccc1)c1ccccc1
inactive

// next record CC(C)[C@@H]1NC(=O)[C@@H]2CCCN2C1=O
inactive

// next record CC(C)[C@@H]1NC(=O)[C@H]2CCCN2C1=O
inactive

// next record O=C1N[C@@H](Cc2ccccc2)C(=O)N2CCC[C@H]12
inactive
